Test: Solubility in PBS
Assay type: physicochemical
Recorded Solubility, one value per entry.
ENDPOINT_NAME: Solubility

- MOLECULE: "CC(=O)N1CCC[C@]12CC=CCCCC1(CCCC=CCCCCCC[C@@](C)(C(=O)N[C@@H](Cc3ccccc3)C(=O)N[C@@H](Cc3c[nH]c4ccccc34)C(=O)N[C@@H](CCC(N)=O)C(N)=O)NC(=O)[C@H](C(C)C)NC(=O)[C@H](Cc3ccccc3)NC(=O)[C@H](C)NC(=O)[C@H](C)NC(=O)[C@H](CC(=O)O)NC(=O)[C@H](CC(=O)O)NC1=O)NC(=O)[C@H](C)NC(=O)[C@H](C)NC2=O (stereo partly drawn) [I-349]"
  ENDPOINT_NAME: "Solubility"
  RESULT: "49 µM"
- MOLECULE: "CC(=O)N1CCC[C@]12CC=CCCCC1(CCCC=CCCCOC(=O)N3CC[C@@](C(=O)N[C@@H](Cc4ccsc4)C(=O)N[C@@H](Cc4csc5ccccc45)C(=O)N[C@@H](CCC(N)=O)C(N)=O)(C3)NC(=O)[C@H](CC(C)C)NC(=O)[C@H](Cc3ccccc3)NC(=O)[C@H](C)NC(=O)[C@H](C)NC(=O)[C@H]([C@@H](C)O)NC(=O)[C@H](CC(=O)O)NC1=O)NC(=O)[C@H](CC(C)(C)C)NC(=O)[C@H](CC(=O)O)NC2=O (stereo partly drawn) [I-1167]"
  ENDPOINT_NAME: "Solubility"
  RESULT: "10 µM"
- MOLECULE: "CC(=O)N1CCC[C@]12CC=CCCCC1(CCCC=CCCCCCC[C@@](C)(C(=O)N[C@@H](Cc3ccccc3)C(=O)N[C@@H](Cc3csc4ccccc34)C(=O)N[C@@H](CCC(N)=O)C(N)=O)NC(=O)[C@H](CCC(N)=O)NC(=O)[C@H](Cc3ccccc3)NC(=O)[C@H](C)NC(=O)[C@H](C)NC(=O)[C@H](CCC(=O)O)NC(=O)[C@H](CC(=O)O)NC1=O)NC(=O)[C@H](CC(F)(F)F)NC(=O)[C@H](CC(=O)O)NC2=O (stereo partly drawn) [I-502]"
  ENDPOINT_NAME: "Solubility"
  RESULT: "50 µM"

Hello, the source for this data is patent US20240116985A1, in case you need it.
